Listed here are compounds together with their documented Ret.
Species: Rattus norvegicus
testName: Open TG-GATES - Regimen: Single
Format: toxicity, organism-based, Sprague-Dawley
Set-up: regimen Single, gender Male, age 6 weeks
conditionNotes: in vivo, po, 30 mg/kg, 6 h, tissue Blood, route gavage, dose level Middle
Answer with a number only, understood to be in %.

# structure, Ret [%]
rows = [
    ("CC1=C(/C=C/C(C)=C/C=C/C(C)=C/CO)C(C)(C)CCC1", 7.3),
    ("CN(C)CCCN1c2ccccc2CCc2ccccc21", 7.6),
    ("CN(C)CCN(Cc1cccs1)c1ccccn1", 7.6),
]

Task: // Ret lookup, key: CN(C)CCCN1c2ccccc2CCc2ccc(Cl)cc21
Output: 7.6

* * *

Listed here are compounds together with their documented APTT.
Organism: Rattus norvegicus
testName: Open TG-GATES - Regimen: Single
Assay type: toxicity, organism-based, Sprague-Dawley
Parameters: regimen Single, gender Male, age 6 weeks
conditionNotes: in vivo, po, 100 mg/kg, 9 h, tissue Blood, route gavage, dose level High
Answer with a number only, understood to be in s.

# structure, APTT [s]
measured = [
    ("CN(C)CCN(Cc1cccs1)c1ccccn1", 21.3),
    ("CN(C)CCCN1c2ccccc2CCc2ccccc21", 16.1),
    ("CN(C)CCCN1c2ccccc2CCc2ccc(Cl)cc21", 16.6),
]

Next, consider the following compound.
Task: // APTT lookup, key: CC1=C(/C=C/C(C)=C/C=C/C(C)=C/CO)C(C)(C)CCC1
Output: 21.5

* * *

Species on record: Rattus norvegicus
testName: Open TG-GATES - Regimen: Daily Repeat
Type: toxicity, organism-based, Sprague-Dawley
Design: regimen Daily Repeat, gender Male, age 6 weeks
conditionNotes: in vivo, po, 0 mg/kg, 72 h, tissue Blood, route gavage, dose level Control, time 3 day
Listed here are molecules together with their documented MCH.
Answer with a number only, understood to be in pg.

These recorded examples may help you get a feel for the data.
# molecule, unitAbbrev, MCH
measured = [
    ("CC1=C(/C=C/C(C)=C/C=C/C(C)=C/CO)C(C)(C)CCC1 [RETINOL]", "pg", 21.4),
    ("COC1=CC(=O)C[C@@H](C)[C@]12Oc1c(Cl)c(OC)cc(OC)c1C2=O [GRISEOFULVIN]", "pg", 21.4),
    ("COc1ccc2[nH]c([S+]([O-])Cc3ncc(C)c(OC)c3C)nc2c1 (stereo unspecified) [OMEPRAZOLE]", "pg", 21.2),
    ("NC(N)=Nc1nc(CSCCC(N)=NS(N)(=O)=O)cs1 [FAMOTIDINE]", "pg", 22.4),
    ("CCOc1ccc(NC(=O)CC(C)O)cc1 (stereo unspecified) [BUCETIN]", "pg", 21.3),
    ("NNC(=O)c1ccncc1 [ISONIAZID]", "pg", 21.7),
    ("CN(C)CCN(Cc1cccs1)c1ccccn1", "pg", 21.3),
    ("O=C(CCCN1CCC(O)(c2ccc(Cl)cc2)CC1)c1ccc(F)cc1 [HALOPERIDOL]", "pg", 21.8),
]

Task: // MCH lookup, key: CN1C(=O)CN=C(c2ccccc2)c2cc(Cl)ccc21 [DIAZEPAM]
Output: 21.4

Task: Here is the next molecule: CCOC(=O)CCC(=O)O[C@H]1[C@H](O[C@@H]2[C@@H](C)[C@H](O[C@H]3C[C@@](C)(OC)[C@@H](O)[C@H](C)O3)[C@@H](C)C(=O)O[C@H](CC)[C@@](C)(O)[C@H](O)[C@@H](C)C(=O)[C@H](C)C[C@@]2(C)O)O[C@H](C)C[C@@H]1N(C)C [ERYTHROMYCIN ETHYLSUCCINATE]
Output: 21.3

Task: Here is the next molecule: CCCNC(=O)NS(=O)(=O)c1ccc(Cl)cc1 [CHLORPROPAMIDE]
Output: 21.8

* * *

Listed here are molecules together with their documented TERMINAL_BW.
Organism: Rattus norvegicus
testName: Open TG-GATES - Regimen: Daily Repeat
Format: toxicity, organism-based, Sprague-Dawley
Set-up: regimen Daily Repeat, gender Male, age 6 weeks
conditionNotes: in vivo, po, 0 mg/kg, 72 h, route gavage, dose level Control, time 3 day
Answer with a number only, understood to be in g.

These recorded examples may help you get a feel for the data.
# molecule, unitAbbrev, TERMINAL_BW
data = [
    ("COC1=CC(=O)C[C@@H](C)[C@]12Oc1c(Cl)c(OC)cc(OC)c1C2=O", "g", 226.2),
    ("NC(N)=Nc1nc(CSCCC(N)=NS(N)(=O)=O)cs1", "g", 227),
    ("CCOc1ccc(NC(=O)CC(C)O)cc1 (stereo not drawn)", "g", 249.6),
]

Task: // TERMINAL_BW lookup, key: CCCNC(=O)NS(=O)(=O)c1ccc(Cl)cc1 [CHLORPROPAMIDE]
Output: 215.2

Task: Here is the next molecule: NNC(=O)c1ccncc1
Output: 219.4

Task: Here is the next molecule: CCOC(=O)CCC(=O)O[C@H]1[C@H](O[C@@H]2[C@@H](C)[C@H](O[C@H]3C[C@@](C)(OC)[C@@H](O)[C@H](C)O3)[C@@H](C)C(=O)O[C@H](CC)[C@@](C)(O)[C@H](O)[C@@H](C)C(=O)[C@H](C)C[C@@]2(C)O)O[C@H](C)C[C@@H]1N(C)C [ERYTHROMYCIN ETHYLSUCCINATE]
Output: 237.5

Task: Here is the next molecule: CN(C)CCN(Cc1cccs1)c1ccccn1
Output: 217.2

Task: Here is the next molecule: COc1ccc2[nH]c([S+]([O-])Cc3ncc(C)c(OC)c3C)nc2c1 (stereo not drawn)
Output: 237.1

* * *

Organism: Rattus norvegicus
testName: Open TG-GATES - Regimen: Single
Type: toxicity, organism-based, Sprague-Dawley
Design: regimen Single, gender Male, age 6 weeks
conditionNotes: in vivo, po, 100 mg/kg, 9 h, tissue Kidney, route gavage, dose level High
Listed here are compounds together with their documented KIDNEY_L.

These recorded examples may help you get a feel for the data.
# structure, KIDNEY_L
rows = [
    ("CN(C)CCCN1c2ccccc2CCc2ccccc21", "0.9 g"),
    ("CC1=C(/C=C/C(C)=C/C=C/C(C)=C/CO)C(C)(C)CCC1", "0.9 g"),
    ("CN(C)CCN(Cc1cccs1)c1ccccn1", "0.8 g"),
]

Task: // KIDNEY_L lookup, key: CN(C)CCCN1c2ccccc2CCc2ccc(Cl)cc21
Output: 1 g

* * *

Species: Rattus norvegicus
testName: Open TG-GATES - Regimen: Daily Repeat
Assay type: toxicity, organism-based, Sprague-Dawley
Parameters: regimen Daily Repeat, gender Male, age 6 weeks
conditionNotes: in vivo, po, 10 mg/kg, 72 h, tissue Blood, route gavage, dose level Low, time 3 day
readoutType: MCHC

Task: // MCHC lookup, key: CC(C)OC(=O)C(C)(C)Oc1ccc(C(=O)c2ccc(Cl)cc2)cc1 [FENOFIBRATE]
Output: 33.1%

Task: Here is the next compound: CN(C)CCN(Cc1cccs1)c1ccccn1
Output: 33.2%

Task: Here is the next compound: CC1=C(/C=C/C(C)=C/C=C/C(C)=C/CO)C(C)(C)CCC1 [RETINOL]
Output: 34.4%

Task: Here is the next compound: CN(C)CCCN1c2ccccc2CCc2ccccc21 [IMIPRAMINE]
Output: 32.5%

* * *

Species: Rattus norvegicus
testName: Open TG-GATES - Regimen: Single
Type: toxicity, organism-based, Sprague-Dawley
Set-up: regimen Single, gender Male, age 6 weeks
conditionNotes: in vivo, po, 100 mg/kg, 24 h, tissue Plasma, route gavage, dose level Low
Listed here are compounds together with their documented Ca.

These recorded examples may help you get a feel for the data.
# compound, Ca
data = [
    ("NC(N)=Nc1nc(CSCCC(N)=NS(N)(=O)=O)cs1", "10.6 mg/dL"),
    ("COc1ccc2[nH]c([S+]([O-])Cc3ncc(C)c(OC)c3C)nc2c1 (centres undefined)", "10.6 mg/dL"),
    ("CCOC(=O)CCC(=O)O[C@H]1[C@H](O[C@@H]2[C@@H](C)[C@H](O[C@H]3C[C@@](C)(OC)[C@@H](O)[C@H](C)O3)[C@@H](C)C(=O)O[C@H](CC)[C@@](C)(O)[C@H](O)[C@@H](C)C(=O)[C@H](C)C[C@@]2(C)O)O[C@H](C)C[C@@H]1N(C)C [ERYTHROMYCIN ETHYLSUCCINATE]", "10.6 mg/dL"),
]

Next, consider the following compound.
Task: // Ca lookup, key: COC1=CC(=O)C[C@@H](C)[C@]12Oc1c(Cl)c(OC)cc(OC)c1C2=O
Output: 11 mg/dL

* * *

Organism: Rattus norvegicus
testName: Open TG-GATES - Regimen: Daily Repeat
Assay type: toxicity, organism-based, Sprague-Dawley
Parameters: regimen Daily Repeat, gender Male, age 6 weeks
conditionNotes: in vivo, po, 1000 mg/kg, […], tissue Blood, route gavage, dose level High, time 7 day
readoutType: WBC (x10_2/uL)
Answer with a number only, understood to be in x10_2/uL.

These recorded examples may help you get a feel for the data.
# molecule, unitAbbrev, WBC
records = [
    ("CC(C)OC(=O)C(C)(C)Oc1ccc(C(=O)c2ccc(Cl)cc2)cc1 [FENOFIBRATE]", "x10_2/uL", 113.4),
    ("CCOC(=O)CCC(=O)O[C@H]1[C@H](O[C@@H]2[C@@H](C)[C@H](O[C@H]3C[C@@](C)(OC)[C@@H](O)[C@H](C)O3)[C@@H](C)C(=O)O[C@H](CC)[C@@](C)(O)[C@H](O)[C@@H](C)C(=O)[C@H](C)C[C@@]2(C)O)O[C@H](C)C[C@@H]1N(C)C [ERYTHROMYCIN ETHYLSUCCINATE]", "x10_2/uL", 93.3),
    ("NC(N)=Nc1nc(CSCCC(N)=NS(N)(=O)=O)cs1 [FAMOTIDINE]", "x10_2/uL", 107.5),
    ("COC1=CC(=O)C[C@@H](C)[C@]12Oc1c(Cl)c(OC)cc(OC)c1C2=O [GRISEOFULVIN]", "x10_2/uL", 110.8),
    ("COc1ccc2[nH]c([S+]([O-])Cc3ncc(C)c(OC)c3C)nc2c1 (stereo unspecified) [OMEPRAZOLE]", "x10_2/uL", 118.3),
]

Task: // WBC lookup, key: CCOc1ccc(NC(=O)CC(C)O)cc1 (stereo unspecified) [BUCETIN]
Output: 166.9
